Kindly state IC50 for each of the entries shown.
Tested on: IL-17 production by CD4 T cells
Experiment: Human Th17 assay (IL-17 production by CD4 T cells under Th17 differentiation)
Assay type: cell-based
Conditions: Homo sapiens, CD4+ T, 72 h, human CD4+ T cells, IL-17 after 3 days; read-out: Human Th17 Assay, IC50 μM
Text: The human Th17 assay tests the effect of RORγt modulatory compounds on IL-17 production by CD4 T cells under conditions which favor Th17 differentiation. Total CD4^+ T cells were isolated from the peripheral blood mononuclear cells (PBMC) of healthy donors using a CD4^+ T cell isolation kit II, following the manufacturer's instructions (Miltenyi Biotec). […] The plate was read using Sector Imager 6000, and IL-17 concentration was extrapolated from the standard curve. […]
Number plus unit, in that order.

Known IC50 results, listed for orientation:
>  <compound>
COc1nc2ccc(C(O)(c3ccc(Cl)cc3)c3cncn3C)cc2c(Cl)c1Cc1cc2ccccc2s1 (single isomer, unassigned) [Example 36C]

>  <IC50>
0.066 µM

$$$$
>  <compound>
COc1nc2ccc(C(O)(c3cnnn3C)C3CN(C(C)=O)C3)cc2c(Cl)c1Cc1ccc(C(F)(F)F)cc1 (racemic) [Example 97A]

>  <IC50>
0.0014 µM

$$$$
>  <compound>
COc1nc2ccc(C(O)(c3ccc(C(F)(F)F)nc3)c3cncn3C)cc2c(Cl)c1Cc1cc2ccccc2s1 (single isomer, unassigned) [Example 37B]

>  <IC50>
0.11 µM

$$$$
>  <compound>
Cn1cncc1C(O)(c1ccc(C(F)(F)F)nc1)c1ccc2nc(Cl)c(Cc3ccc(-n4cccn4)cc3)c(Cl)c2c1 (stereo not drawn)

>  <IC50>
0.15 µM

$$$$
>  <compound>
COc1nc2ccc(C(O)(c3ccc(Cl)cc3)c3cncn3C)cc2c(Cl)c1Cc1ccc(-n2cncn2)cc1 (single isomer, unassigned) [Example 64C]

>  <IC50>
0.086 µM

$$$$

Asked: Note IC50 for the compound shown: COc1nc2c(C)cc(C(O)(c3ccc(Cl)cc3)c3cncn3C)cc2c(Cl)c1Cc1ccc(-n2cccn2)cc1 (stereo not drawn) [Example 28A]
Given back: 0.2 µM
